Items are presented alongside their recorded EC50.
# study-target: apelin receptor (APJ) (Homo sapiens)
# Sequence (P35414 whole entry): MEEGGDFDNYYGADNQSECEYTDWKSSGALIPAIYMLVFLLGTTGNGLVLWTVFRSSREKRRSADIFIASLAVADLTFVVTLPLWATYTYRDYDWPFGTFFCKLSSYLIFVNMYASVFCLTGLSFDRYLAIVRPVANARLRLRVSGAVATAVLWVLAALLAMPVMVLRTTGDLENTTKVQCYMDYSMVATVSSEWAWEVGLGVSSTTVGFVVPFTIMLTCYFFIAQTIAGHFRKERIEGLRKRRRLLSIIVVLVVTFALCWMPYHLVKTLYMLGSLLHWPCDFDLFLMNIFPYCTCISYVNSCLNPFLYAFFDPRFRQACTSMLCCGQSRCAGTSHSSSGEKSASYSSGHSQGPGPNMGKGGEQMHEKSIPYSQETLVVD
# assay-method-text: In vitro apelin agonist activity (methods of Giddings et al., Apelin-13 as positive control)
# Format: cell-based
# conditions: EC50 (nM) Ave, in vitro apelin agonist activity, methods of Giddings et al., Apelin-13 as positive control
Answer format reminder: number followed by unit.

[[record]]
compound = "O=C(C[C@H](CCN1CCCC[C@H]1C(F)(F)F)NC(=O)c1cc(-c2ccccc2C(F)(F)F)n(C2CCCC2)n1)NC1CCC1 [compound 496]"
experimental_value = "30 nM"


**Q:** Field request: EC50 | item: O=C(O)C[C@H](CCN1CC(F)(F)C(F)(F)C(F)(F)C1)NC(=O)c1cc(-c2ccccc2C(F)(F)F)n(C2CCCC2)n1 [compound 566]
**A:** 3050 nM

**Q:** Field request: EC50 | item: O=C(C[C@H](CCN1CCOCC1)NC(=O)c1cc(-c2ccccc2C(F)(F)F)n(C2CCCC2)n1)NC1CCC1 [compound 491]
**A:** 68 nM

**Q:** Field request: EC50 | item: O=C(C[C@H](CN1CCC(F)(F)C1)NC(=O)c1cc(-c2ccccc2C(F)(F)F)n(C2CCCC2)n1)NC1CCC1 [compound 523]
**A:** 1210 nM
